# Tested on: MOLM14
# Measurement protocol: cell viability relative to vehicle control; higher = less cytotoxic;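 also: after 48 h exposure read by CellTiter-Glo luminescence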
# Experimental conditions: 10 µM; SRSF2 genotype: SRSF2 P95H/wt
Parameter: cell viability. Scope: all listed entries.
Measured property: cell viability (%)

• CCCCCCCCCC(C)=O = 97.7
• CCCCC1C(=O)N(c2ccccc2)N(c2ccccc2)C1=O = 98
• O=C(O)CCn1c2c(c3ccccc31)C[C@H](NS(=O)(=O)c1ccc(F)cc1)CC2 = 102
• C[C@H]1c2cccc(O)c2C(O)=C2C(=O)[C@]3(O)C(O)=C(C(N)=O)C(=O)[C@@H](N(C)C)[C@@H]3[C@@H](O)[C@@H]21 = 102
• O=C1Cc2ccccc2N1 = 95
• Cc1nc2c(O)cccc2c(=O)[nH]1 = 95.6
• CC(C(=O)O)c1ccc2c(c1)Cc1cccnc1O2 (centres undefined) = 102
• CNC(=O)c1ccccc1Nc1nc(Nc2ccc(N3CCOCC3)cc2OC)ncc1Cl = 9.8
• CC(C)CCN1c2nc(Nc3cc(F)c(O)c(F)c3)ncc2N(C)C(=O)C1C (centres undefined) = 11.4

---

# System: OCI-AML2
# Measurement protocol: cell viability relative to vehicle control; higher = less cytotoxic
# Experimental conditions: 10 µM; SRSF2 genotype: wt/wt
Where a name gives a salt, the structure may show the parent alone.
Parameter: cell viability. Scope: all listed entries.
Measured property: cell viability (%)

* O=C1C[C@@H]2[C@@H](CO)[C@H](O)C[C@@H]2O1 | 93.3
* CCCCCCCCCCCCCCCc1cccc(O)c1C(=O)O | 83.5
* CC(C)OC(=O)[C@H](C)N[P@](=O)(OC[C@H]1O[C@@H](n2ccc(=O)[nH]c2=O)[C@](C)(F)[C@@H]1O)Oc1ccccc1 | 107
* Cc1ccc(C(=O)O)c(O)c1 | 95.5
* CCN(CC)CCOC(=O)c1ccc(N)cc1Cl [Chloroprocaine HCl] | 113
* CC1(C)S[C@@H]2[C@H](NC(=O)[C@H](NC(=O)N3CCNC3=O)c3ccccc3)C(=O)N2[C@H]1C(=O)O [Azlocillin sodium salt] | 91.8
* Cc1ccc(NCCCc2ccccc2)c(N)c1 | 63.5
* COC(=O)C1=CO[C@@H](O[C@@H]2O[C@H](CO)[C@@H](O)[C@H](O)[C@H]2O)[C@@H]2[C@@]3(C)O[C@H]3[C@@H](O)[C@]12O [Sesamoside] | 107

---

Parameter: cell viability. Scope: all listed entries.
# Test system: MOLM14
# Measurement protocol: cell viability relative to vehicle control; higher = less cytotoxic
# Experimental conditions: 10 µM; SRSF2 genotype: SRSF2 P95H/wt
Counter-ions that a name gives are not always drawn.
Measured property: cell viability (%)

• CCC[C@H](Nc1nc(-c2ccc(NC(=O)NCC)c(OC)c2)ncc1C)c1cccnc1 = 1.24
• O=c1[nH]c(=O)n([C@H]2C[C@H](O)[C@@H](CO)O2)cc1Br = 80.8
• CS(=O)(=O)Nc1ccc([N+](=O)[O-])cc1OC1CCCCC1 = 94.4
• COc1cc2c(Nc3ccc(NC(=O)c4ccccc4)cc3)ncnc2cc1OCCCN1CCOCC1 = 17.9
• COc1cc(CCC(=O)CC(=O)CCc2ccc(O)c(OC)c2)ccc1O [Tetrahydrocurcumin] = 92.8
• CC(C)c1noc(N2CCC(COc3ccc(-c4ccc(S(C)(=O)=O)cc4)nc3)CC2)n1 = 90.4
• O=c1[nH]cnc2c1ncn2[C@@H]1O[C@H](CO)[C@@H](O)[C@H]1O = 99.7
• COc1ccc2[nH]c([S@@+]([O-])Cc3ncc(C)c(OC)c3C)nc2c1 [NEXIUM (esomeprazole magnesium)] = 92
• C[C@@H](CN1CC(=O)NC(=O)C1)N1CC(=O)NC(=O)C1 [Dexrazoxane Hydrochloride] = 70.5
• CCc1cccc(CC)c1NC(=O)N1Cc2[nH]nc(NC(=O)c3ccc(N4CCN(C)CC4)cc3)c2C1 = 19.8
• CCCCC(C)(O)C/C=C/[C@H]1[C@H](O)CC(=O)[C@@H]1CCCCCCC(=O)OC (mixture of isomers) = 83.5
• NC(=O)N1CCC(CC(=O)N2CCC([C@H]3c4ncc(Br)cc4CCc4cc(Cl)cc(Br)c43)CC2)CC1 = 37.4
• COc1cccc2c1C(=O)c1c(O)c3c(c(O)c1C2=O)CC(O)(C(=O)CO)CC3OC1CC(N)C(O)C(C)O1 (configuration not stated) [Doxorubicin (Adriamycin) HCl] = 1
• Nc1ccc(C(=O)O)c(O)c1 [Sodium 4-Aminosalicylate] = 88.7
• COc1nc(OCc2cccc(-c3ccccc3)c2C)ccc1CNCCNC(C)=O = 41.6
• CC1CCCCCCCCCCCCC(=O)C1 (configuration not stated) = 90.6
• O=C(c1cccc(Br)c1)N1CCC(N2CCCC2)CC1 = 105

---

# Test system: MOLM14
# Measurement protocol: cell viability relative to vehicle control; higher = less cytotoxic
# Experimental conditions: 10 µM; SRSF2 genotype: SRSF2 wt/wt
Measured property: cell viability (%)

* C=C1C(=O)O[C@@H]2/C=C(\C)CC/C=C(\C)CC[C@@H]12 [Costunolide] | 5.5
* O=C(O)c1ccc2c(c1)nc(Nc1cccc(Cl)c1)c1ccncc12 [cx-4945 (Silmitasertib)] | 34
* CC(C)(C)[N+]([O-])=Cc1ccc(S(=O)(=O)O)cc1S(=O)(=O)O [NXY-059 (Disufenton sodium)] | 108
* CC(C)C(=O)Nc1ccc([N+](=O)[O-])c(C(F)(F)F)c1 [Flutamide (Eulexin)] | 95.4
* NS(=O)(=O)NCCNc1nonc1/C(=N/O)Nc1ccc(F)c(Br)c1 | 100

---

Parameter: cell viability. Scope: all listed entries.
# Test system: MARIMO
# Measurement protocol: cell viability relative to vehicle control; higher = less cytotoxic
# Experimental conditions: 10 µM; SRSF2 genotype: SRSF2 wt/wt
Measured property: cell viability (%)

* CN1C(C(=O)Nc2ccccn2)=C(O)c2ccccc2S1(=O)=O [Piroxicam (Feldene)] | 106
* O=c1cc(-c2ccc(O[C@@H]3O[C@H](CO)[C@@H](O)[C@H](O)[C@H]3O)cc2)oc2cc(O)c([C@@H]3O[C@H](CO)[C@@H](O)[C@H](O)[C@H]3O[C@@H]3OC[C@H](O)[C@H](O)[C@H]3O)c(O)c12 [Vaccarin] | 96.3
* O=C1CN(/N=C/C=C/c2ccc([N+](=O)[O-])o2)C(=O)N1 [Furagin] | 107
* CC(C)(O)C1CCC(C)(C2C(O)CC3(C)C4CC(OC5OC(CO)C(O)C(O)C5O)C5C(C)(C)C(OC6OCC(O)C(O)C6O)CCC56CC46CCC23C)O1 (configuration not stated) [Astragaloside A] | 111
* CC1(C)CCCC2(C)OC(=O)C=C12 (configuration not stated) [Dihydroactinidiolide] | 104
* OCc1ccc(O)cc1 [4-Hydroxybenzyl alcohol] | 112
* C=C1CCC2C(C)(COC(=O)CCC(=O)O)C(OC(=O)CCC(=O)O)CCC2(C)C1C=CC1=CCOC1=O (configuration not stated) [Dehydroandrographolide Succinate] | 101
* O=C1CN(/N=C/c2ccc(-c3ccc([N+](=O)[O-])cc3)o2)C(=O)N1 [Dantrolene sodium hemiheptahydrate] | 104
* O=C(Oc1coc(CSc2ncccn2)cc1=O)c1ccc([N+](=O)[O-])cc1 | 98.7
* CC(=O)c1ccc(C)cc1O [2'-Hydroxy-4'-methylacetophenone] | 103
* OC[C@H]1O[C@@H](OCCc2ccc(O)cc2)[C@H](O)[C@@H](O)[C@@H]1O [Salidroside (Rhodioloside)] | 104
* Cc1onc(-c2c(Cl)cccc2Cl)c1C(=O)N[C@@H]1C(=O)N2[C@@H]1SC(C)(C)[C@@H]2C(=O)O [Dicloxacillin Sodium] | 103
* CCCCc1ccc(O)cc1O [4-Butylresorcinol] | 102
* CC(=O)C1=C(O)C=C2Oc3c(C(C)=O)c(O)c(C)c(O)c3C2(C)C1=O (single isomer, unassigned; (+)) [(+)-Usniacin (D-Usnic acid)] | 106
* Cc1ccc(C(=O)Cn2c3c(sc2=N)CCCC3)cc1 | 93.8
* CN1CCN(CCCNc2ncc(Cl)c(-c3cc4c(C(=O)NC5CC5)cccc4s3)n2)CC1 | 85.8
* O=C(Nc1cccnc1)c1cc(-c2ccnc(F)c2)ccc1OCc1ccccc1 | 102

---

# Tested on: OCI-AML2
# Measurement protocol: cell viability relative to vehicle control; higher = less cytotoxic
# Experimental conditions: 10 µM; SRSF2 genotype: P95H/wt
Measured property: cell viability

* OC1CCC(Nc2ncc3nc(Nc4c(F)cc(F)cc4F)n([C@H]4CCOC4)c3n2)CC1 (some centres undefined) | 117%
* NC(=O)Nc1sc(-c2ccc(F)cc2)cc1C(N)=O | 20.2%
* Cn1c(-c2ccccc2C(F)(F)F)nnc1C12CCC(c3noc(C4CC(F)(F)C4)n3)(CC1)CC2 | 99%
* O=C1C[C@@H](c2ccccc2)Oc2cc(O)cc(O)c21 | 95.1%
* CC(C)N(CC[C@H](c1ccccc1)c1cc(CO)ccc1O)C(C)C | 93.5%
* COC(=O)N[C@H](C(=O)N1CCC[C@H]1C(=O)Nc1ccc([C@@H]2CC[C@@H](c3ccc(NC(=O)[C@@H]4CCCN4C(=O)[C@@H](NC(=O)OC)C(C)C)cc3)N2c2ccc(C(C)(C)C)cc2)cc1)C(C)C | 112%
* Nc1ncnc2c1ncn2[C@@H]1O[C@H](CO)[C@@H](O)[C@@H]1O [Vidarabine monohydrate] | 110%
* Cc1ccc(Sc2ccccc2N2CCNCC2)c(C)c1 | 0.2%
* O=C(O)c1c[nH]c2ccccc12 | 92.3%
